Target: hA2a/CHO (Homo sapiens (Human))
Sequence (P29274 whole entry): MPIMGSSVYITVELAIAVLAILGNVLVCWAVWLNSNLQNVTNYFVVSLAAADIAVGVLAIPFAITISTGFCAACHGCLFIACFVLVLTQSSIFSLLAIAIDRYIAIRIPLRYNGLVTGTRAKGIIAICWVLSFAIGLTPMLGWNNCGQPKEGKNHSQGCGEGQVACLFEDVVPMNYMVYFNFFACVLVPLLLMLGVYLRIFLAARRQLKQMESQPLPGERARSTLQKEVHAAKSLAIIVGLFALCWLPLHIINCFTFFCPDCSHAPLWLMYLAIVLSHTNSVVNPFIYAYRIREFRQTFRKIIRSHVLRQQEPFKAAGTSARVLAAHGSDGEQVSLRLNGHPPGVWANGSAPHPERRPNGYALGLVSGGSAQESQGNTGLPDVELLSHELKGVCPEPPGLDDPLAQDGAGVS
Experiment: cAMP inhibition assay in hA2a/CHO cells, 10 μM adenosine;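 further: compounds added to cells 30 min ahead of adenosine, then a further 30 min at 37 °C with adenosine before cAMP detection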
Type: cell-based
Conditions: read-out: cAMP & FLIPR IC50 (nM) hA2a
# IC50 listing for each entry below
Only the number, expressed in nM, is required.

CN(C)c1ccnc(CNC(=O)c2nc(-c3ccc(=O)n(C)c3)c(-c3ncco3)nc2N)n1	125

(Q) // fetch hA2a/CHO (Homo sapiens (Human)) IC50 for `COc1ccccc1CNC(=O)c1nc(-c2ccc(=O)n(C(C)C)c2)c(-c2ccc(F)cc2)nc1N`
(A) 10

(Q) Another compound: Cc1cnc2ccc(-c3nc(C(=O)NCC4CCO4)c(N)nc3-c3ncco3)cn12 (single isomer, unassigned) [Example 134]
(A) 4.3

(Q) Item: `Cc1cnc2ccc(-c3nc(C(=O)NCc4cccc(N[C@H]5C[C@H](N(C)C)C5)n4)c(N)nc3-c3ncco3)cn12`
(A) 4.4

(Q) Cool, now `Cc1cnc2ccc(-c3nc(C(=O)N[C@@H]4CCOC4)c(N)nc3-c3ncco3)cn12`
(A) 20

(Q) Further, for `COC[C@H](C)NC(=O)c1nc(-c2ccc3ncc(C)n3c2)c(-c2ncco2)nc1N` ?
(A) 0.26

(Q) Repeat for the following compound: `Cc1cnc2ccc(-c3nc(C(=O)NC4CCC4)c(N)nc3-c3ncco3)cn12`
(A) 1.5

(Q) One more compound: `Cc1cc(-c2nc(C(=O)NCc3ccccc3F)c(N)nc2-c2ccc(F)cc2)cc(C)n1`
(A) 44

(Q) Further, for `Cc1cnc2ccc(-c3nc(C(=O)NC[C@@H]4CC(F)(F)CN4C)c(N)nc3-c3ncco3)cn12` ?
(A) 0.95

(Q) Again, but for Cc1cnc2ccc(-c3nc(C(=O)NCC4CCN(C)C4=O)c(N)nc3-c3ccc(F)cc3)cn12 (single isomer, unassigned; isomer 1) [Example 267]
(A) 0.9

(Q) Request: `Nc1nc(-c2ncco2)c(-c2ccc(=O)n(C3CC3)c2)nc1C(=O)NCc1c(F)cccc1F`
(A) 2.4

(Q) Entry COC(C)CNC(=O)c1nc(-c2ccc3ncc(C)n3c2)c(-c2ncco2)nc1N (single isomer, unassigned; isomer 2) [Example 241] please
(A) 4

(Q) Request: Cc1cnc2ccc(-c3nc(C(=O)NCC4CCCCO4)c(N)nc3-c3ncco3)cn12 (single isomer, unassigned; isomer 1) [Example 165]
(A) 0.24

(Q) Consider next the compound `Cc1cnc2ccc(-c3nc(C(=O)NC[C@@H]4CCN(C(=O)C5CC5)C4)c(N)nc3-c3ncco3)cn12` in the same way.
(A) 1.6
